Target: human ether-à-go-go-related gene (hERG) potassium channel (human, UniProt Q12809);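 note: peak tail current of the secondary pulse compared with the same well before compound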
Sequence (Q12809 whole entry, looked up): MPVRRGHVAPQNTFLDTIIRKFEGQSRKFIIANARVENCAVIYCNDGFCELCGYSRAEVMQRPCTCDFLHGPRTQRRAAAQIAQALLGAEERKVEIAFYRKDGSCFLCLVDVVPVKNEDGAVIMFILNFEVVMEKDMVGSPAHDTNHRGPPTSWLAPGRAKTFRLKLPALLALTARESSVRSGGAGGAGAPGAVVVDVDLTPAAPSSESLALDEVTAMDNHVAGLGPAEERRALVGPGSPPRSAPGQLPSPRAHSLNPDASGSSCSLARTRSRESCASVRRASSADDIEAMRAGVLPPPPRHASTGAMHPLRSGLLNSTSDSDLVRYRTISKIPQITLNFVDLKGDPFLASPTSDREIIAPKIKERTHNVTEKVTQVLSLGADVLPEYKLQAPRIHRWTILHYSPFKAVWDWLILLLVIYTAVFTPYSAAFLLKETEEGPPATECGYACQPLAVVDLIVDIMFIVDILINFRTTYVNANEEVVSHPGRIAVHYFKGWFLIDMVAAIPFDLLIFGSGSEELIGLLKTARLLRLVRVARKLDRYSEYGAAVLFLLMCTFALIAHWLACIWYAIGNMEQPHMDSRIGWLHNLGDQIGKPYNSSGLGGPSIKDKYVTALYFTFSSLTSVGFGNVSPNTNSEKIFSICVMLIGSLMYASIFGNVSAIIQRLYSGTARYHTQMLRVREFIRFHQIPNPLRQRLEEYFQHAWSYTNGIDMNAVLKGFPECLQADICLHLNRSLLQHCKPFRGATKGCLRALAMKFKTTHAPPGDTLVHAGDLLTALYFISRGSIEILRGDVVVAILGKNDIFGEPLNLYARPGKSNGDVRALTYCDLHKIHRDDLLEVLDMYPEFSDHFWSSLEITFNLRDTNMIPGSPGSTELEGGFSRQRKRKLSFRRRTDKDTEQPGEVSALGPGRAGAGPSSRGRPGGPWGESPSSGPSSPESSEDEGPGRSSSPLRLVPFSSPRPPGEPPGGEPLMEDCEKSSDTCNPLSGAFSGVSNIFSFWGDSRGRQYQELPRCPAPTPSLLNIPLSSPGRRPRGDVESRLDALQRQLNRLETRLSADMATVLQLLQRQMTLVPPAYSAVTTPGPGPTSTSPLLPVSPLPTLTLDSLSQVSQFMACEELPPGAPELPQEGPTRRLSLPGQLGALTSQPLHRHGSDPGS
Experiment: primary screen, population patch clamp on CHO cells stably expressing hERG; higher = less effect of the substance
About 14,000 (4.5%) of roughly 310,000 compounds showed an effect of 50% or more. The effect is printed as a negative number. Many of the other results were omitted from the sample, so strong results are more common in it than they were.
Below is a list of entries, each paired with its recorded hERG current change (%, negative = inhibition) at 10uM value.

CC1CCCCN1C(=O)Cc1ccc(Cl)cc1 (centres unmarked) : -11.1%
O=C(Cn1c(C(=O)N2CCc3ccccc3C2)cc2sccc21)c1ccccc1 : 4.01%
Cn1cnc(S(=O)(=O)NC2CCN(Cc3c(F)cccc3Cl)CC2)c1 : -18.6%
CCOc1ccc(C(=O)Nc2cc(S(=O)(=O)Nc3ccccc3Cl)ccc2N2CCOCC2)cc1 : 6.95%

Challenge: Quick one: hERG current change (%, negative = inhibition) at 10uM for O=C(Cn1c(C(=O)NCC2CCCO2)cc2sccc21)c1ccccc1 (centres unmarked) ?
Response given: -3.47%

====

Molecular target: human ether-à-go-go-related gene (hERG) potassium channel (human);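 note: peak tail current of the secondary pulse compared with the same well before compound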
Test: primary screen, population patch clamp on CHO cells stably expressing hERG; higher = less effect of the substance
Screen size: about 310,000 compounds; about 14,000 (4.5%) showed an effect of 50% or more. Effects have a minus sign here. The sample holds strong results, similar compounds and a random draw of the others, so the mix is not that of the screen.
measurement.type: hERG current change (%, negative = inhibition) at 10uM (%)
A number alone suffices; assume %.

These solved cases illustrate the format of a correct answer.
COc1ccccc1CCCNC(=O)C1CCC(=O)N(CCc2ccc(Cl)cc2)C1 (stereo not drawn) : -60.5
O=C(NCc1ccco1)c1ccc(Cl)c(S(=O)(=O)N2CCOCC2)c1 : -7.4

Challenge: Suppose we examine the compound COc1cccc(/C=C2\SC(=O)N(CC(=O)NCCCn3ccnc3)C2=O)c1 ; what hERG current change (%, negative = inhibition) at 10uM value has been reported?
Response given: -31.6

Challenge: Would you kindly share the measured hERG current change (%, negative = inhibition) at 10uM for CCc1ccc(CNC(=O)C2CCC(=O)N(CCc3ccc(Cl)cc3)C2)nc1 (stereo not drawn) ?
Response given: -67

====

Target: human ether-à-go-go-related gene (hERG) potassium channel (human, UniProt Q12809);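 note: peak tail current of the secondary pulse compared with the same well before compound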
Test: primary screen, population patch clamp on CHO cells stably expressing hERG; higher = less effect of the substance
Among all 310,000 compounds or so, about 14,000 (4.5%) showed an effect of 50% or more. Effects have a minus sign here. The entries come from a sample that favours strong results as a whole.
measurement.type: hERG current change (%, negative = inhibition) at 10uM (%)
Your answer is read as %, so omit the unit and give the number.

Challenge: I have this molecule here, O=C(c1cccc([N+](=O)[O-])c1)N1CCN(S(=O)(=O)N2CCCCC2)CC1 , and I need its recorded hERG current change (%, negative = inhibition) at 10uM.
Response given: -15.2

Challenge: hERG current change (%, negative = inhibition) at 10uM lookup needed for CCOC(=O)C1CCCN(C2=NC(=O)/C(=C/c3ccc(N(C)C)cc3)S2)C1 (stereo not shown) , thanks.
Response given: -24.9

Challenge: So what does the record say about hERG current change (%, negative = inhibition) at 10uM for O=c1oc2ccccc2c2c1ncn2-c1ccccc1 ?
Response given: -11.8
